molecular target: Hck (UniProt P08631); assay: phosphorylation enrichment, bacterial display (enrichment ratio); higher = better substrate or ligand; peptides without Tyr show the background;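 further: 11-residue human phosphosite peptides and single-mutation variants displayed on the E. coli surface, counted by deep sequencing, each peptide's frequency after selection divided by its frequency in the unselected input library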;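 further: frequency after pTyr selection over input frequency; kinase dosed for 20-30% of maximal phosphorylation in three min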
Sequence (P08631 whole entry, looked up): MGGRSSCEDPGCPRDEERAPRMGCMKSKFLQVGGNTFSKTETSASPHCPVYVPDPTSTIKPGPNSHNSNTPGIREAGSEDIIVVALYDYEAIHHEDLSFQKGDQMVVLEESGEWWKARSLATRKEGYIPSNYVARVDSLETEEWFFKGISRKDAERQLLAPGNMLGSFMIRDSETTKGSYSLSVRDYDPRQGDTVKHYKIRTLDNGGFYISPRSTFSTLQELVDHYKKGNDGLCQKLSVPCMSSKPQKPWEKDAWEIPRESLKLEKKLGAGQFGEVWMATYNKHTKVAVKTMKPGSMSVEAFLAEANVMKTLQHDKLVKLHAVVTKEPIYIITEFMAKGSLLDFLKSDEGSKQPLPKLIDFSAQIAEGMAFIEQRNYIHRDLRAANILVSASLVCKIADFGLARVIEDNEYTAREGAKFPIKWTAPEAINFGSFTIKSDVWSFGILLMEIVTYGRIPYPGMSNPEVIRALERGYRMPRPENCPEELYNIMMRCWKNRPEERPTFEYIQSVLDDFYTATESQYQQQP
Note: every record was labeled by where its phosphorylation enrichment sits among small value: < 0.5; mid value: ≥ 0.5 and < 0.6; large value: ≥ 0.6

Past entries and their recorded results:
- TDEYEYDELIV [TGM1_Y136]: large value
- EYFDGYWGYSV [ITGA2B_Y265]: large value
- GVIKEYQIRQV [USH2A_Y3623]: small value

Record IQSAKYDMAED [TTC21B_Y1213] — which class?
large value

Record ENPLDYGSAWA [AR_Y395] — which class?
mid value
